Tested on: RXF 393 renal
Assay: NCI tumour cell line growth inhibition, 48 h; in the data active = GI50 below about 0.43 µM; inactive = the rest
Please reply with one of these outcomes: active, inactive

Can you look up the reported call for `Cc1ccc(C)c(N2CCN(c3ccncc3N)CC2)c1` for me? inactive

Can you look up the reported call for `COc1cc(C(=O)/C=C/c2c[nH]c3ccccc23)cc(OC)c1OC` for me? active

Can you look up the reported call for `COC(=O)[C@]12CC[C@@H](C)[C@H](C)[C@@H]1C1=CC[C@@H]3[C@@]4(C)C[C@@H](OC(C)=O)[C@H](OC(C)=O)[C@@](C)(COC(C)=O)[C@@H]4[C@H](O)C[C@@]3(C)[C@]1(C)CC2` for me? inactive

Can you look up the reported call for CC[C@H](C)[C@H](NC(=O)CN(C)C)C(=O)N(C)[C@H](C[C@@H](OC(C)=O)c1nc(C(=O)NC23C4C5C2C2C3C4C52C(=O)OC)cs1)C(C)C (some centres undefined) for me? active

Can you look up the reported call for CC1CCc2c(C(=O)Nc3ncc(Cc4cccc([N+](=O)[O-])c4)s3)csc2C1 (centres undefined) for me? inactive

Can you look up the reported call for `CNC(=O)c1sc(-n2cnc3cc(OC)c(OC)cc32)cc1OCc1ccccc1C(F)(F)F` for me? inactive

Can you look up the reported call for `COc1ccc(/C=C\c2cc(OC)c(OC)c(OC)c2)cc1NC(=O)/C=C/c1cc(OC)c(OC)c(OC)c1` for me? inactive

Can you look up the reported call for `N#Cc1ccc2c(-c3ccnc(NC4CC4)n3)c(-c3ccc(F)cc3)nn2c1` for me? inactive

Can you look up the reported call for `CN1CCN(Cc2ccc(NC(=O)c3cncc(C#Cc4c(N)ncc5ccccc45)c3)cc2C(F)(F)F)CC1` for me? inactive

Every entry's value here was drawn from PubChem BioAssay (NCI).
